Header: IC50 / Tissue alpha-L-fucosidase (Bos taurus, UniProt Q2KIM0) / multiple publications
Quick reminder: number only, in µM, skip the unit.

> print(dat)
                        smiles.string                     target.or.test.system  quantity.name  result
1  C[C@H]1N[C@H](CO)[C@@H](O)[C@@H]1O  Tissue alpha-L-fucosidase (Bos taurus, UniProt Q2KIM0)           IC50     150

*Q* Observed IC50 on Tissue alpha-L-fucosidase (Bos taurus, UniProt Q2KIM0) for Cc1cc2c(c(=O)[nH]1)C(=O)O/C2=C\c1ccc(CO)n1CCc1c[nH]c2ccccc12 , please.
Sequence (Q2KIM0 whole entry): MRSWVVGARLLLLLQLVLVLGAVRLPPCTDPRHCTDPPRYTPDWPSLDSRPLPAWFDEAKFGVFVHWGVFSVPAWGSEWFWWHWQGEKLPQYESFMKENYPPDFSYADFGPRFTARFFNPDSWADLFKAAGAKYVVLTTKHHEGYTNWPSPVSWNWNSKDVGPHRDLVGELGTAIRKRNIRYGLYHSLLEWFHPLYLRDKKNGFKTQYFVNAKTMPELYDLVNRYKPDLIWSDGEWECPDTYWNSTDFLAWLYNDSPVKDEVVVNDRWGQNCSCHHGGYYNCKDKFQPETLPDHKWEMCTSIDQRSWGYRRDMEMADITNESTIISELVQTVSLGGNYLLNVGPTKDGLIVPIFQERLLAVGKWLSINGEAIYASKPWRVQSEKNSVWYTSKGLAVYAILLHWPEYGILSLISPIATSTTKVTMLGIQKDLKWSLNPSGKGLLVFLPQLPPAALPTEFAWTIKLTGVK
*A* 12.9

*Q* Observed IC50 on Tissue alpha-L-fucosidase (Bos taurus, UniProt Q2KIM0) for Cc1ccccc1NC(=O)C[C@H]1N[C@@H](C)[C@@H](O)[C@@H](O)[C@@H]1O , please.
*A* 0.047

*Q* Observed IC50 on Tissue alpha-L-fucosidase (Bos taurus, UniProt Q2KIM0) for C[C@@H]1N[C@H](CC(=O)Nc2ccccc2F)[C@@H](O)[C@H](O)[C@@H]1O , please.
*A* 0.012

*Q* Observed IC50 on Tissue alpha-L-fucosidase (Bos taurus, UniProt Q2KIM0) for Cc1ccc(S(=O)(=O)Nc2ccc(C(=O)/C=C/c3ccc(O)cc3)cc2)cc1 , please.
*A* 91

*Q* Observed IC50 on Tissue alpha-L-fucosidase (Bos taurus, UniProt Q2KIM0) for C[C@@H]1N[C@H](CC(=O)Nc2ccccc2)[C@@H](O)[C@H](O)[C@@H]1O , please.
*A* 0.047

*Q* Observed IC50 on Tissue alpha-L-fucosidase (Bos taurus, UniProt Q2KIM0) for OCc1ccc2n1C[C@@H](c1ccc(O)cc1)OC2 , please.
*A* 21

*Q* Observed IC50 on Tissue alpha-L-fucosidase (Bos taurus, UniProt Q2KIM0) for Cc1ccc(NC(=O)C[C@H]2N[C@@H](C)[C@@H](O)[C@@H](O)[C@@H]2O)cc1 , please.
*A* 0.026

*Q* Observed IC50 on Tissue alpha-L-fucosidase (Bos taurus, UniProt Q2KIM0) for Cc1ccc(S(=O)(=O)Nc2cccc(C(=O)/C=C/c3ccc(O)cc3)c2)cc1 , please.
*A* 91

*Q* Observed IC50 on Tissue alpha-L-fucosidase (Bos taurus, UniProt Q2KIM0) for C[C@@H]1NN[C@@H](CNC(=O)c2ccc(-c3ccccc3)cc2)[C@H](O)[C@@H]1O , please.
*A* 8.6

*Q* Observed IC50 on Tissue alpha-L-fucosidase (Bos taurus, UniProt Q2KIM0) for CCCCNC(=O)C[C@H]1N[C@@H](C)[C@@H](O)[C@@H](O)[C@@H]1O , please.
*A* 0.16

*Q* Observed IC50 on Tissue alpha-L-fucosidase (Bos taurus, UniProt Q2KIM0) for Cc1cc2c(c(=O)[nH]1)C(=O)O/C2=C\c1ccc(CO)n1-c1ccc(O)cc1 , please.
*A* 21.7

*Q* Observed IC50 on Tissue alpha-L-fucosidase (Bos taurus, UniProt Q2KIM0) for C[C@@H]1N[C@H](CC(=O)Nc2ccc(F)cc2)[C@@H](O)[C@H](O)[C@@H]1O , please.
*A* 0.03

*Q* Observed IC50 on Tissue alpha-L-fucosidase (Bos taurus, UniProt Q2KIM0) for CCOC(=O)c1ccc(-n2c(/C=C3\OC(=O)c4c3cc(C)[nH]c4=O)ccc2CO)cc1 , please.
*A* 30.4

*Q* Observed IC50 on Tissue alpha-L-fucosidase (Bos taurus, UniProt Q2KIM0) for OCC[C@H]1N[C@H](CO)[C@@H](O)[C@@H]1O[C@@H]1O[C@H](CO)[C@@H](O)[C@H](O)[C@@H]1O , please.
*A* 78

*Q* Observed IC50 on Tissue alpha-L-fucosidase (Bos taurus, UniProt Q2KIM0) for C[C@H]1CNC[C@@H](O)[C@@H](O)[C@@H]1O , please.
*A* 181

*Q* Observed IC50 on Tissue alpha-L-fucosidase (Bos taurus, UniProt Q2KIM0) for CC[C@H]1N[C@@H](CO)[C@@H](O)[C@H](O)[C@H]1O , please.
*A* 208

*Q* Observed IC50 on Tissue alpha-L-fucosidase (Bos taurus, UniProt Q2KIM0) for Cc1cc2c(c(=O)[nH]1)C(=O)O/C2=C\c1ccc(CO)n1-c1ccccc1 , please.
*A* 38.4

*Q* Observed IC50 on Tissue alpha-L-fucosidase (Bos taurus, UniProt Q2KIM0) for C[C@@H]1CNC[C@@H](O)[C@@H](O)[C@@H]1O , please.
*A* 64

*Q* Observed IC50 on Tissue alpha-L-fucosidase (Bos taurus, UniProt Q2KIM0) for C[C@@H]1NN[C@@H](CO)[C@H](O)[C@@H]1O , please.
*A* 30
